# Test target: Gag-Pol polyprotein (Human immunodeficiency virus type 1 group M subtype B (isolate HXB2))
# Experiment summary: HIV-1 RT RNase H inhibitor potency, dose response, biochemical, probe assessment (AID 652)
# Protocol conditions: HIV-1 RT RNase H enzymatic assay, inhibition, at 50 µM, stronger effect = higher value
Kind request: treat 90% as inclusive, so inhibition at 90% or higher is met, anything lower is not met.

Check if inhibition >= 90% (inclusive). Item: CCC(C)c1ccc2oc(-c3ccc(NC(=O)c4ncn[nH]4)cc3)nc2c1 (configuration not stated)
met

API: above_or_equal(metric=inhibition, cutoff=90%) for item Cc1cccc(N2CCN(C(=O)Cn3sc4nc(C)cc(C)c4c3=O)CC2C)c1 (configuration not stated)
not met

Reported inhibition reaches at least 90% for CCOC(=O)c1sc(=S)n2c1[nH]c(=O)c1ccc(C(=O)OC)cc12 ?
met

I'd appreciate it if you could say whether COc1ccc(N2CCN(Cc3cc(=O)oc4cc(-c5ccccc5)c(O)cc34)CC2)cc1 has inhibition at least equal to 90%.
met

Item COC(=O)c1ccc2c(=O)[nH]c(CN3c4ccccc4CC3C)nc2c1 (configuration not stated) with inhibition of 90% or above?
not met
